Data provenance is ChEMBL document CHEMBL1275425.

Target: Human immunodeficiency virus type 1 reverse transcriptase (Human immunodeficiency virus 1, UniProt Q72547)
Test: Inhibition of DNA-dependent DNA polymerase activity of HIV 1 reverse transcriptase assessed as incorporation of dTMP by burst assay using DNA/DNA Primer/Template combination
RECORDED_METRIC: pKd
Please treat pKd as minus the base-10 logarithm of the molar concentration.

The compound Cc1cn([C@H]2C[C@H](O)[C@@H](COP(=O)(O)OP(=O)(O)OP(=O)(O)O)O2)c(=O)[nH]c1=O [DEOXYTHYMIDINE_TRIPHOSPHATE] showed pKd equal to 4.81

====

Biological target: Human immunodeficiency virus type 1 reverse transcriptase (Human immunodeficiency virus 1, UniProt Q72547)
Test: Inhibition of DNA-dependent DNA polymerase activity of HIV 1 reverse transcriptase assessed as incorporation of d4TMP by burst assay using DNA/DNA Primer/Template combination
RECORDED_METRIC: pKd
Please treat pKd as minus the base-10 logarithm of the molar concentration.

The compound Cc1cn([C@H]2C=C[C@@H](COP(=O)(O)OP(=O)(O)OP(=O)(O)O)O2)c(=O)[nH]c1=O [STAVUDINE TRIPHOSPHATE] showed pKd equal to 4.32

====

Target: Human immunodeficiency virus type 1 reverse transcriptase (Human immunodeficiency virus 1, UniProt Q72547, M184V)
Assay: Inhibition of RNA-dependent DNA polymerase activity of HIV 1 reverse transcriptase M184V mutant assessed as incorporation of d4TMP by burst assay using RNA/DNA Primer/Template combination
RECORDED_METRIC: Kd
Reply with a number, then the unit it belongs to.

The molecule Cc1cn([C@H]2C=C[C@@H](COP(=O)(O)OP(=O)(O)OP(=O)(O)O)O2)c(=O)[nH]c1=O [STAVUDINE TRIPHOSPHATE] showed Kd equal to 232 µM

====

Target: Human immunodeficiency virus type 1 reverse transcriptase (Human immunodeficiency virus 1, UniProt Q72547)
Test: Inhibition of RNA-dependent DNA polymerase activity of HIV 1 reverse transcriptase assessed as incorporation of 4-EdTMP by burst assay using RNA/DNA Primer/Template combination
RECORDED_METRIC: Kd (µM)
Your answer should be a plain number; it is taken to be in µM.

The compound `C#C[C@@]1(COP(=O)(O)OP(=O)(O)OP(=O)(O)O)C=C[C@H](n2cc(C)c(=O)[nH]c2=O)O1` showed Kd equal to 11.4

====

Target: Human immunodeficiency virus type 1 reverse transcriptase (Human immunodeficiency virus 1, UniProt Q72547, M184V)
Assay: Inhibition of DNA-dependent DNA polymerase activity of HIV 1 reverse transcriptase M184V mutant assessed as incorporation of dTMP by burst assay using DNA/DNA Primer/Template combination
RECORDED_METRIC: pKd
Please treat pKd as minus the base-10 logarithm of the molar concentration.

The compound Cc1cn([C@H]2C[C@H](O)[C@@H](COP(=O)(O)OP(=O)(O)OP(=O)(O)O)O2)c(=O)[nH]c1=O [DEOXYTHYMIDINE_TRIPHOSPHATE] showed pKd equal to 4.14

====

Molecular target: Human immunodeficiency virus type 1 reverse transcriptase (Human immunodeficiency virus 1, UniProt Q72547)
Assay: Inhibition of RNA-dependent DNA polymerase activity of HIV 1 reverse transcriptase assessed as incorporation of dTMP by burst assay using RNA/DNA Primer/Template combination
RECORDED_METRIC: pKd
Please treat pKd as minus the base-10 logarithm of the molar concentration.

The molecule Cc1cn([C@H]2C[C@H](O)[C@@H](COP(=O)(O)OP(=O)(O)OP(=O)(O)O)O2)c(=O)[nH]c1=O [DEOXYTHYMIDINE_TRIPHOSPHATE] showed pKd equal to 4.17
